Attribution: PubChem BioAssay AID1963972

Tested on: 945468-187-T-J2-PDC spheroids viability;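 also: spheroids exposed to compounds for seven days before reading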
Assay: Anticancer human tumor 945468-187-T-J2-PDC patient-derived rectal carcinoma cell line growth inhibition [PI3K]
Details: second compound 0.1 µM; first compound 3.16 µM; active compounds read low; spheroids with HUVEC and MSC
recorded_metric: viability, T/C

compound	reported
C#Cc1c(F)ccc2cc(O)cc(-c3ncc4c(N5CC6CCC(C5)N6)nc(OCC56CCCN5CC(F)C6)nc4c3F)c12 (stereo not drawn) + CC(Nc1ccc2c(c1)OCCn1cc(N3C(=O)OCC3C(F)F)nc1-2)C(N)=O	108%

Inquiry: State viability, T/C (945468-187-T-J2-PDC spheroids viability) of CNC(=O)c1ccc(N2C(=S)N(c3ccc(C#N)c(C(F)(F)F)c3)C(=O)C2(C)C)cc1F + CC(Nc1ncnc2nc[nH]c12)c1cc2cccc(Cl)c2c(=O)n1-c1ccccc1 .
Reply text: 106%

Inquiry: State viability, T/C (945468-187-T-J2-PDC spheroids viability) of CC1(C)CCC(CN2CCN(c3ccc(C(=O)NS(=O)(=O)c4ccc(NCC5CCOCC5)c([N+](=O)[O-])c4)c(Oc4cnc5[nH]ccc5c4)c3)CC2)=C(c2ccc(Cl)cc2)C1 + COc1c(OCCCN2CCOCC2)ccc2c3n(c(=NC(=O)c4cnc(N)nc4)nc12)CCN3 .
Reply text: 84.5%
